Tested on: HT-29
Assay: Cell growth inhibition, resazurin, 48 h
Format: cell-based, human
Conditions: Homo sapiens, HT-29, 48 h, HT-29, 48 h drug exposure
READOUT KIND: pEC50
Value format note: pEC50 is -log10 of concentration (mol/L); just state the number.

-- ask Supply reported pEC50 belonging to this molecule: C[C@@]12OC(=O)[C@]1([C@@H](O)[C@H]1CCC[C@H]3O[C@@H]13)NC(=O)[C@@H]2CCCl [Formula II-5A]
-- reply 7.17

-- ask Supply reported pEC50 belonging to this molecule: C[C@@]12OC(=O)[C@]1([C@@H](O)[C@@H]1C=CCCC1)NC(=O)[C@@H]2CCI [Formula II-19]
-- reply 7.96

-- ask Supply reported pEC50 belonging to this molecule: C[C@@]12OC(=O)[C@]1([C@@H](O)[C@@H]1C=CCCC1)NC(=O)[C@@H]2CCCl [Formula II-16, Salinosporamide A]
-- reply 7.33

###

Biological target: trypsin-like activity of rabbit muscle 20S proteasome (Oryctolagus cuniculus)
Construct: EC50 Trypsin-like; other: purified rabbit 20S proteasome, Boc-LRR-AMC; other: under the conditions tested
Sequence (G1SWK8 1-271): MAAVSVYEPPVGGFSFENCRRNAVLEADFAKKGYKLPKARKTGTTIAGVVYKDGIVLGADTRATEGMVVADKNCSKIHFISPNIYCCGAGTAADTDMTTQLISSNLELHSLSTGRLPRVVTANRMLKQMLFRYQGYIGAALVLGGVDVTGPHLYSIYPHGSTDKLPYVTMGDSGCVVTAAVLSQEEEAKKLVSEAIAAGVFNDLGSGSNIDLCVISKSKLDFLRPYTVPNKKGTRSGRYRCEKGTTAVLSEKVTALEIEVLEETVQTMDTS
Experiment: In vitro inhibition of 20S proteasome, Boc-LRR-AMC
Format: biochemical
Details: purified rabbit 20S proteasome, Boc-LRR-AMC
READOUT KIND: EC50 (nM)
Please state the figure in nM; there is no need to write the unit.

-- ask Supply reported EC50 belonging to this compound: C[C@@]12OC(=O)[C@]1([C@@H](O)[C@@H]1C=CCCC1)NC(=O)[C@@H]2CCI [Formula II-19]
-- reply 15

-- ask Supply reported EC50 belonging to this compound: C[C@@]12OC(=O)[C@]1([C@@H](O)[C@H]1CCC[C@H]3O[C@@H]13)NC(=O)[C@@H]2CCCl [Formula II-5A]
-- reply 90

-- ask Supply reported EC50 belonging to this compound: C[C@H]1C(=O)N[C@@]2([C@@H](O)[C@@H]3C=CCCC3)C(=O)O[C@@]12C [Formula II-20]
-- reply 321

###

System: U266
Test: Cell growth inhibition, resazurin, 48 h
Assay type: cell-based, human
Conditions: Homo sapiens, U-266, 48 h, U266, 48 h drug exposure; read-out: EC50
Please respond with reported pEC50 for every item in the list.
Value format note: pEC50 is -log10 of concentration (mol/L); just state the number.

-- ask Supply reported pEC50 belonging to this compound: `C[C@@]12OC(=O)[C@]1([C@@H](O)[C@@H]1C=CCCC1)NC(=O)[C@@H]2CCBr`
-- reply 8.38

-- ask Supply reported pEC50 belonging to this compound: `C[C@@]12OC(=O)[C@]1([C@@H](O)[C@H]1CCC[C@H](Cl)[C@H]1O)NC(=O)[C@@H]2CCCl`
-- reply 5.11

-- ask Supply reported pEC50 belonging to this compound: `C[C@@]12OC(=O)[C@]1([C@@H](O)C1CCCCC1)NC(=O)[C@@H]2CCBr`
-- reply 7.47

###

Biological target: caspase-like (PGPH) activity of rabbit muscle 20S proteasome (Oryctolagus cuniculus, UniProt A0A5F9DQW2)
Sequence (A0A5F9DQW2 1-212): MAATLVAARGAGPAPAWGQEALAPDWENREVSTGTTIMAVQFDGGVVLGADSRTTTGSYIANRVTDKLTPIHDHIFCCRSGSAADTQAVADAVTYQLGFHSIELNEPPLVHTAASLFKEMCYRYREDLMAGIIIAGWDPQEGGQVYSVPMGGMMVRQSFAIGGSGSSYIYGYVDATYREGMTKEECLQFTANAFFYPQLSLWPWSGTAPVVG
Test: In vitro inhibition of 20S proteasome, Z-LLE-AMC
Details: read-out: EC50 Caspase-like
READOUT KIND: EC50

-- ask Supply reported EC50 belonging to this compound: CC[C@H]1C(=O)N[C@@]2([C@@H](O)C3CCCCC3)C(=O)O[C@@]12C [Formula II-3]
-- reply > 20 µM

###

Tested on: MIA PaCa-2
Assay: Cell growth inhibition, resazurin, 48 h
Assay type: cell-based
Conditions: Homo sapiens; MIA PaCa-2, 48 h drug exposure
READOUT KIND: EC50 (nM)
Please state the figure in nM; there is no need to write the unit.

-- ask Supply reported EC50 belonging to this molecule: C[C@@]12OC(=O)[C@]1([C@@H](O)[C@@H]1C=CCCC1)NC(=O)[C@@H]2CCCl [Formula II-16, Salinosporamide A]
-- reply 46

###

Target: chymotrypsin-like activity of rabbit muscle 20S proteasome (Oryctolagus cuniculus, UniProt G1T4Q9)
Sequence (G1T4Q9 1-263): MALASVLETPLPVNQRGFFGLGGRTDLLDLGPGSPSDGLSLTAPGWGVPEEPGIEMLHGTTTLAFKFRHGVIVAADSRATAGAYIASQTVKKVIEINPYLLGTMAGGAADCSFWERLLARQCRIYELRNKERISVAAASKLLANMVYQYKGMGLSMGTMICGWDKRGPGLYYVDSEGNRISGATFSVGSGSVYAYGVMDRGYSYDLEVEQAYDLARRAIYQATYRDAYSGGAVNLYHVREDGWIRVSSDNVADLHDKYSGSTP
Assay: In vitro inhibition of 20S proteasome, suc-LLVY-AMC
READOUT KIND: EC50

-- ask Supply reported EC50 belonging to this molecule: `C[C@@]12OC(=O)[C@]1([C@@H](O)[C@H]1CCC[C@@H]3O[C@H]13)NC(=O)[C@@H]2CCCl`
-- reply 13 to 88 nM

-- ask Supply reported EC50 belonging to this molecule: `C[C@@]12OC(=O)[C@]1([C@@H](O)[C@H]1CCC[C@H]3O[C@@H]13)NC(=O)[C@@H]2CCCl`
-- reply 2 to 11 nM

-- ask Supply reported EC50 belonging to this molecule: C[C@@]12OC(=O)[C@]1(C(=O)C1=CC(O)CCC1)NC(=O)[C@]2(C)CCCl (some centres unmarked)
-- reply > 20000 nM

-- ask Supply reported EC50 belonging to this molecule: `C[C@@]12OC(=O)[C@]1([C@@H](O)[C@@H]1C=CCCC1)NC(=O)[C@@H]2CCI`
-- reply 2 to 11 nM

-- ask Supply reported EC50 belonging to this molecule: `C[C@H]1C(=O)N[C@@]2([C@@H](O)[C@@H]3C=CCCC3)C(=O)O[C@@]12C`
-- reply 2 to 11 nM

###

Please respond with reported EC50 for every item in the list.
System: NF-κB-mediated luciferase activity in HEK293 NF-κB/Luc cells
Experiment: NF-κB-mediated luciferase reporter gene assay
Assay type: cell-based, human
Conditions: Homo sapiens, HEK293, 1 h pretreatment, 6 h TNF-α stimulation; read-out: EC50
Please state the figure in nM; there is no need to write the unit.

-- ask Supply reported EC50 belonging to this molecule: `CC[C@H]1C(=O)N[C@@]2([C@@H](O)[C@@H]3C=CCCC3)C(=O)O[C@@]12C`
-- reply 960

-- ask Supply reported EC50 belonging to this molecule: `C[C@@]12OC(=O)[C@]1([C@@H](O)[C@@H]1C=CCCC1)NC(=O)[C@@H]2CCBr`
-- reply 9

-- ask Supply reported EC50 belonging to this molecule: `C[C@@]12OC(=O)[C@]1([C@@H](O)C1CCCCC1)NC(=O)[C@@H]2CCBr`
-- reply 67

###

Tested on: HL-60
Test: Cell growth inhibition, resazurin, 48 h
Conditions: HL-60, 48 h drug exposure
Please respond with reported EC50 for every item in the list.

-- ask Supply reported EC50 belonging to this compound: C[C@@]12OC(=O)[C@]1([C@@H](O)[C@@H]1C=CCCC1)NC(=O)[C@@H]2CCCl [Formula II-16, Salinosporamide A]
-- reply 0.03 µM

-- ask Supply reported EC50 belonging to this compound: `C[C@@]12OC(=O)[C@]1([C@@H](O)[C@@H]1C=CCCC1)NC(=O)[C@@H]2CCBr`
-- reply 0.023 µM

###

Test system: HT-29
Assay: Cell growth inhibition, resazurin, 48 h
Format: cell-based, human
Conditions: Homo sapiens; HT-29, 48 h drug exposure; read-out: EC50
Please respond with reported EC50 for every item in the list.

-- ask Supply reported EC50 belonging to this compound: `C[C@@]12OC(=O)[C@]1([C@@H](O)C1CCCCC1)NC(=O)[C@@H]2CCCl`
-- reply 0.129 µM

-- ask Supply reported EC50 belonging to this compound: `CC[C@H]1C(=O)N[C@@]2([C@@H](O)[C@@H]3C=CCCC3)C(=O)O[C@@]12C`
-- reply > 20 µM

-- ask Supply reported EC50 belonging to this compound: `CC[C@H]1C(=O)N[C@@]2([C@@H](O)C3CCCCC3)C(=O)O[C@@]12C`
-- reply > 20 µM

###

Target: caspase-like (PGPH) activity of rabbit muscle 20S proteasome (Oryctolagus cuniculus)
Test: In vitro inhibition of 20S proteasome, Z-LLE-AMC
Conditions: read-out: EC50 Caspase-like (PGPH); purified rabbit 20S proteasome, Z-LLE-AMC
Please respond with reported pEC50 for every item in the list.
Value format note: pEC50 is -log10 of concentration (mol/L); just state the number.

-- ask Supply reported pEC50 belonging to this compound: `C[C@H]1C(=O)N[C@@]2([C@@H](O)[C@@H]3C=CCCC3)C(=O)O[C@@]12C`
-- reply 5.85

-- ask Supply reported pEC50 belonging to this compound: `C[C@@]12OC(=O)[C@]1([C@@H](O)[C@@H]1C=CCCC1)NC(=O)[C@@H]2CCI`
-- reply 6.13

-- ask Supply reported pEC50 belonging to this compound: `CCC[C@H]1C(=O)N[C@@]2([C@@H](O)[C@@H]3C=CCCC3)C(=O)O[C@@]12C`
-- reply 6.02
